Tested on: immortalized human keratinocytes (HaCaT)
Test: LDH cytotoxicity test, keratinocytes
Assay type: cell-based
Conditions: LDH, 48 h
Residues, ends and D or L forms follow the SMILES beside them.
Field: concentration at which cytotoxic effect starts. Provide a value for each of the compounds that follow.
One number for each entry, in µg/mL.

Consider the reported concentration at which cytotoxic effect starts for these compounds:
compound	recordedMeasurement
CC(C)C[C@H](NC(=O)[C@H](CCCNC(=N)N)NC(=O)OCc1ccccc1)C(=O)N[C@H](CNC(=O)C(=Cc1ccccc1)c1ccccc1)C(C)C	50
CC(C)[C@@H](CNC(=O)C(=Cc1ccccc1)c1ccccc1)NC(=O)[C@H](Cc1c[nH]cn1)NC(=O)[C@H](CCCCNC(=N)N)NC(=O)OCc1ccccc1	150
Cc1ccccc1COC(=O)N[C@@H](CCCNC(=N)N)C(=O)N[C@@H](CC(C)C)C(=O)N[C@H](CNC(=O)/C=C/c1ccccc1)C(C)C	100

// switching to the query compound
-- ask Provide only the value of recorded concentration at which cytotoxic effect starts for CC(C)C[C@H](NC(=O)[C@H](CCCNC(=N)N)NC(=O)OCc1ccccc1)C(=O)N[C@H](C(=O)NCCc1ccccc1)C(C)C [Compound A-196] (HELM PEPTIDE1{[O=C(OCc1ccccc1)[*:2]].R.L.V.[c1ccc(CCN[*:1])cc1]}$$$$V2.0)
-- reply 150
